Molecular target: mouse TMEM16A mutant I516A (Mus musculus, UniProt Q8BHY3, I516A)
Construct: expressed in transfected cells; host or cells: HEK293T
Sequence (Q8BHY3 1-960 I516A): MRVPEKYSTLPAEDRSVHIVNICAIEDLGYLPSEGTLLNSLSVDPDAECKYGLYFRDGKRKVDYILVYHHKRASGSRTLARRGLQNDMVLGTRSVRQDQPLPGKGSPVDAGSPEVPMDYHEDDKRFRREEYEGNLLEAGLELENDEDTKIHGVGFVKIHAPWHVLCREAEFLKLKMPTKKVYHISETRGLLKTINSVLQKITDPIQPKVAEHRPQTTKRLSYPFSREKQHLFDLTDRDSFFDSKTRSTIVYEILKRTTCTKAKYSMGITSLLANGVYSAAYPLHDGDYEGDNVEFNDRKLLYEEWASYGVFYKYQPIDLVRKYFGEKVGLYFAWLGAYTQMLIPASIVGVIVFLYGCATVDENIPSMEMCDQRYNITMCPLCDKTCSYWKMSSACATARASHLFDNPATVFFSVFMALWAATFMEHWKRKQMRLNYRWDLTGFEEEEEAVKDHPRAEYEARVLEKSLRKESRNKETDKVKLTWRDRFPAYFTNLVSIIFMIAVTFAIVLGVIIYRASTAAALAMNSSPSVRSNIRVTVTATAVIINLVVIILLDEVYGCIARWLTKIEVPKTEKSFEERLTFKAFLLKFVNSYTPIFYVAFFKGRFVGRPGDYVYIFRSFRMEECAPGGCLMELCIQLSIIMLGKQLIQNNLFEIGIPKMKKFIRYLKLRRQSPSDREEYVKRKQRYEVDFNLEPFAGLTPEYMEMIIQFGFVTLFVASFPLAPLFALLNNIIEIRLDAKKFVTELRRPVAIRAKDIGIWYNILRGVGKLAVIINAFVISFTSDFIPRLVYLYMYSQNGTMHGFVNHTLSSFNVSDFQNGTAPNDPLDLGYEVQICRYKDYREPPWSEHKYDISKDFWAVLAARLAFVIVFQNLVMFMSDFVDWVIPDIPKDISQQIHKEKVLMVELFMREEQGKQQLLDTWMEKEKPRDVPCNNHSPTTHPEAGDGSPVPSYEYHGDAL
Assay: Inside-out patch recording of 1PBC block, mutant I516A
Assay type: cell-based
Conditions: I516A; V 140 mV
readoutKind: IC50 (µM)
Value expressed in µM; do not type the unit.

// returns reported IC50 for input N#Cc1c(C(F)(F)F)cc(O)n2c1nc1ccccc12
5.41

---

Biological target: mouse TMEM16A mutant V511A (Mus musculus, UniProt Q8BHY3, V511A)
Construct: expressed in transfected cells; host or cells: HEK293T
Experiment: Inside-out patch recording of 1PBC block, mutant V511A
Assay type: cell-based
Details: V511A; V 100 mV
readoutKind: IC50

// returns reported IC50 for input N#Cc1c(C(F)(F)F)cc(O)n2c1nc1ccccc12 [1PBC]
7.86 µM

---

Target: mouse TMEM16A mutant I512A (Mus musculus, UniProt Q8BHY3, I512A)
Construct: expressed in transfected cells; host or cells: HEK293T
Assay: Inside-out patch recording of 1PBC block, mutant I512A
Type: cell-based
Details: I512A; V 20 mV
readoutKind: pIC50
Lab note — pIC50 values are minus log10 of concentrations in M.

// returns reported pIC50 for input N#Cc1c(C(F)(F)F)cc(O)n2c1nc1ccccc12
4.59

---

Target: mouse TMEM16A mutant Q637A (Mus musculus, UniProt Q8BHY3, Q637A)
Construct: expressed in transfected cells; host or cells: HEK293T
Assay: Inside-out patch recording of 1PBC block, mutant Q637A
Format: cell-based
Conditions: 140 mV; 2 µM Ca2+
readoutKind: IC50

// returns reported IC50 for input N#Cc1c(C(F)(F)F)cc(O)n2c1nc1ccccc12
1170 nM

---

Target: mouse TMEM16A mutant Q637A (Mus musculus, UniProt Q8BHY3, Q637A)
Construct: expressed in transfected cells; host or cells: HEK293T
Test: Inside-out patch recording of 1PBC block, mutant Q637A
Assay type: cell-based
Conditions: -80 mV; 2 µM Ca2+
Experimental: HEK293T cells (ATCC CRL-1573) were maintained in Dulbecco’s modified Eagle’s medium (DMEM; Sigma-Aldrich) supplemented with 10 U ml^−1 penicillin, 0.1 mg ml^−1 streptomycin (Sigma-Aldrich), 2 mM L-glutamine (Sigma-Aldrich), and 10% FBS (Sigma-Aldrich) in a humidified atmosphere containing 5% CO2 at 37 °C. […]
readoutKind: IC50 (µM)
Value expressed in µM; do not type the unit.

// returns reported IC50 for input N#Cc1c(C(F)(F)F)cc(O)n2c1nc1ccccc12
5.19

---

Target: mouse TMEM16A mutant P595A (Mus musculus, UniProt Q8BHY3, P595A)
Construct: expressed in transfected cells; host or cells: HEK293T
Sequence (Q8BHY3 1-960 P595A): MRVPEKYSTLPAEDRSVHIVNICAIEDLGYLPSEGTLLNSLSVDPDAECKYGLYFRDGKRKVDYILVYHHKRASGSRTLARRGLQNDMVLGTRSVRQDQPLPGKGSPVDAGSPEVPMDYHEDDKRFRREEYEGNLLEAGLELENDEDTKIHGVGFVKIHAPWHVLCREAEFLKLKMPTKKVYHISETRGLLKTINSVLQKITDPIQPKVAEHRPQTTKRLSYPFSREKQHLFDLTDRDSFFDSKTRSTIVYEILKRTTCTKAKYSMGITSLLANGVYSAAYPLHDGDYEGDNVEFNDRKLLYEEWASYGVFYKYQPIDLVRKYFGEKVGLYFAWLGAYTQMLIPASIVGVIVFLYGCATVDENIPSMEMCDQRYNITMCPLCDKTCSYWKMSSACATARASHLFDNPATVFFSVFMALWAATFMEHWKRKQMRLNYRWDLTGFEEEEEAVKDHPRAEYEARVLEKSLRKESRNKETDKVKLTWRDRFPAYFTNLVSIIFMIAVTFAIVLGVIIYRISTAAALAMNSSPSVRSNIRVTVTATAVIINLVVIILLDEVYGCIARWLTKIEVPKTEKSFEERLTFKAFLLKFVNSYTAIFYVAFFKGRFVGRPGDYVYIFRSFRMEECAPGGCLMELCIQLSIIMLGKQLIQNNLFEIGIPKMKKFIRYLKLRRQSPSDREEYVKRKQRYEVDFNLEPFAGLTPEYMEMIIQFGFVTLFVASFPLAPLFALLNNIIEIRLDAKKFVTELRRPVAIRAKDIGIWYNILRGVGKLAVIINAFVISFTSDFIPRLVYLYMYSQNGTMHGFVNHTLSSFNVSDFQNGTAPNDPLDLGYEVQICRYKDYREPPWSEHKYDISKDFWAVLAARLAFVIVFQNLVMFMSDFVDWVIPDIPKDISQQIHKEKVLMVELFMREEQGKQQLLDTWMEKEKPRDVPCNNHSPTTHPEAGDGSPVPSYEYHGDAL
Assay: Inside-out patch recording of 1PBC block, mutant P595A
Type: cell-based
Conditions: -20 mV; 2 µM Ca2+
readoutKind: IC50 (µM)
Value expressed in µM; do not type the unit.

// returns reported IC50 for input N#Cc1c(C(F)(F)F)cc(O)n2c1nc1ccccc12 [1PBC]
3.88

---

Target: mouse TMEM16A mutant Y514A (Mus musculus, UniProt Q8BHY3, Y514A)
Construct: expressed in transfected cells; host or cells: HEK293T
Sequence (Q8BHY3 1-960 Y514A): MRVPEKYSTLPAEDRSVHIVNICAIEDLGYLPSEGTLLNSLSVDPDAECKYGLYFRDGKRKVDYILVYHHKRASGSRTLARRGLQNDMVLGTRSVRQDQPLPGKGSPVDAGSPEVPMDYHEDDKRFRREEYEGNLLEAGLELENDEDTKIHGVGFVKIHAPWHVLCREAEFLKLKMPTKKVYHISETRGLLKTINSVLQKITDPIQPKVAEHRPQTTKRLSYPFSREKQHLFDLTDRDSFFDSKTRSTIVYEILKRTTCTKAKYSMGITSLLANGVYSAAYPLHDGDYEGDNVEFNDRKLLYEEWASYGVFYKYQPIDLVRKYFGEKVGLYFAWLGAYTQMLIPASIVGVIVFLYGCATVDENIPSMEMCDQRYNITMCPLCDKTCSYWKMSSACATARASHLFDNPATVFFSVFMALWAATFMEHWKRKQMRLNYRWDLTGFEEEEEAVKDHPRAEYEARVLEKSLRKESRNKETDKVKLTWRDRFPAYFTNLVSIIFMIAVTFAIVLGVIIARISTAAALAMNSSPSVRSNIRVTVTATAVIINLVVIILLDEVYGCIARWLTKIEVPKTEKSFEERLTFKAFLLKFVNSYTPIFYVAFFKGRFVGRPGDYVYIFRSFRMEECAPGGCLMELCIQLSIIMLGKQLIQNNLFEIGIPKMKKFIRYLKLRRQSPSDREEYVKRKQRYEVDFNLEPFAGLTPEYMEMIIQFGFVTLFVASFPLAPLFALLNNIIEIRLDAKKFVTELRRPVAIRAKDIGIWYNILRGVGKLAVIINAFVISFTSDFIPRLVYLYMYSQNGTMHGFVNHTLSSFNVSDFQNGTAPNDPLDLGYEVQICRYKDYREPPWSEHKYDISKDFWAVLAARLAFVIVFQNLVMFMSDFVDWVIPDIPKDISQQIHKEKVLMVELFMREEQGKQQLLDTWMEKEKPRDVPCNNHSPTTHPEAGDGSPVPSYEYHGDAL
Assay: Inside-out patch recording of 1PBC block, mutant Y514A
Type: cell-based
Conditions: Y514A; V 140 mV
readoutKind: IC50 (µM)
Value expressed in µM; do not type the unit.

// returns reported IC50 for input N#Cc1c(C(F)(F)F)cc(O)n2c1nc1ccccc12
11.5
